Attribution: the supplement of paper PMC8882468

Catalogue of CTG-3D luminescence at 96 h readings, one per entry.
Test system: HCI-008 (organoid from a HER2-enriched breast cancer xenograft)
PROTOCOL: CTG-3D luminescence at 96 h relative to day-0 seeding control (ratio to day 0); higher = more growth / less cytotoxicity; PDxO 3D drug screen, 96 h, CTG-3D normalised to day-0 seeding control.
SETUP_CONDITIONS: 100 µM; days in culture: 228

# SMILES_STRUCTURE, TARGET_UNDER_TEST, CTG-3D luminescence at 96 h
records = [
    ("C/C=C1\\NC(=O)[C@H]2CSSCC/C=C/[C@H](CC(=O)N[C@H](C(C)C)C(=O)N2)OC(=O)[C@H](C(C)C)NC1=O", "HCI-008", -0.00528),
    ("C=CC(=O)N1CCC[C@@H](n2nc(-c3ccc(Oc4ccccc4)cc3)c3c(N)ncnc32)C1", "HCI-008", -0.0059),
    ("C=CCn1c(=O)c2cnc(Nc3ccc(N4CCN(C)CC4)cc3)nc2n1-c1cccc(C(C)(C)O)n1", "HCI-008", 0.251),
    ("CNC(=O)c1cccc(-c2ccc3c(N4CCOC[C@@H]4C)nc(N4CCOC[C@@H]4C)nc3n2)c1", "HCI-008", 0.289),
    ("Cc1nc(-c2cn3c(n2)-c2ccc(-c4cnn(C(C)(C)C(N)=O)c4)cc2OCC3)n(C(C)C)n1", "HCI-008", 0.174),
    ("NC(=O)c1cccc2cn(-c3ccc([C@@H]4CCCNC4)cc3)nc12", "HCI-008", 0.00065),
    ("C[C@H](NC(=O)CCC(F)(F)F)C(=O)N[C@@H]1C(=O)N(CCO)c2ncccc2-c2ccccc21", "HCI-008", 1.65),
]
